Provenance of the data: patent US6514997B2

For each record, write down the corresponding CC50.
system: H1-HeLa cells; experiment: Cytotoxicity (CC50) in mock-infected H1-HeLa cells, XTT dye reduction; format: cell-based, human; conditions: HRV-3

For the molecule shown here, "C#CC[C@@H](C(=O)N[C@H](/C=C/C(=O)OCc1ccccc1)C[C@@H]1CCNC1=O)n1cccc(NC(=O)c2cc(C)on2)c1=O" , give the reported CC50. > 10 µM

Entry to check: "CC[C@@H](C(=O)N[C@H](/C=C/C(=O)OCc1ccccc1)C[C@@H]1CCNC1=O)n1cccc(NC(=O)c2cc(C)on2)c1=O" > 10 µM

Now the molecule "Cc1cc(C(=O)Nc2cccn([C@@H](Cc3ccccc3)C(=O)N[C@H](/C=C/C(=O)OC(C)C)C[C@@H]3CCNC3=O)c2=O)no1" > 10 µM

---

Assign pEC50 to each entry below.
tested on: HRV-14; test: Antirhinoviral H1-HeLa cell culture assay (XTT cell protection, EC50), HRV-14; format: cell-based, human rhinovirus (HRV) serotype-14 in H1-HeLa cells; settings: Rhinovirus B, HRV14, H1-HeLa
Field pEC50 (float): negative decimal logarithm of the concentration in molar.

Suppose we examine the compound "CC[C@@H](C(=O)N[C@H](/C=C/C(=O)OC1CCCC1)C[C@@H]1CCNC1=O)n1cccc(NC(=O)c2cc(Cl)on2)c1=O" ; what pEC50 value has been reported? 7.10

Subsequent entry: "CCOC(=O)/C=C/[C@H](C[C@@H]1CCNC1=O)NC(=O)Cn1cccc(NC(=O)c2cc(C)on2)c1=O" 6.00

# repeat for "CCOC(=O)/C=C/[C@H](C[C@@H]1CCNC1=O)NC(=O)[C@@H]1CCc2ccc(NC(=O)c3cc(C)on3)c(=O)n21" 6.79

Would you kindly repeat that for "CCOC(=O)/C=C/[C@H](C[C@@H]1CCNC1=O)NC(=O)[C@H](Cc1ccc(F)c(F)c1)n1cccc(NC(=O)c2cc(C)on2)c1=O" ? 9.00

Try this compound too: "Cc1cc(C(=O)Nc2cccn([C@@H](Cc3ccccc3)C(=O)N[C@H](/C=C/C(=O)OC(C)C)C[C@@H]3CCNC3=O)c2=O)no1" 6.81

Next entry: "Cc1cc(C(=O)Nc2cccn([C@@H](Cc3ccc(F)c(F)c3)C(=O)N[C@H](/C=C/C(=O)OC3CCCC3)C[C@@H]3CCNC3=O)c2=O)no1" 8.40

Query "C#CC[C@@H](C(=O)N[C@H](/C=C/C(=O)OC1CCCCC1)C[C@@H]1CCNC1=O)n1cccc(NC(=O)c2cc(C)on2)c1=O" next 6.76

Follow-up item: "CCOC(=O)/C=C/[C@H](C[C@@H]1CCNC1=O)NC(=O)[C@H](Cc1ccccc1)n1cccc(NC(=O)OCc2ccccc2)c1=O" 8.52

Can you check "CCOC(=O)/C=C/[C@H](C[C@@H]1CCNC1=O)NC(=O)[C@H](Cc1ccccc1)n1ccc2cc[nH]c2c1=O" next? 5.90

---

test system: MRC-5 cells; assay: Cytotoxicity (CC50) in uninfected MRC-5 cells, XTT dye reduction; type: cell-based, human; conditions: ENT-70 row
propertyLabel: CC50

Which value of CC50 has been reported for CCOC(=O)c1ccc(OCCC2CCN(c3ccc(C)nn3)CC2)cc1 [Pirodavir, reference compound] in the records? > 10 µM
